The origin of these recorded values is ChEMBL document CHEMBL1909046.

- target-or-test-system: Melanocortin receptor 4 (Homo sapiens); further: in other assays of this panel Not Active means under 50% inhibition at 10 µM
- Sequence (P32245 whole entry): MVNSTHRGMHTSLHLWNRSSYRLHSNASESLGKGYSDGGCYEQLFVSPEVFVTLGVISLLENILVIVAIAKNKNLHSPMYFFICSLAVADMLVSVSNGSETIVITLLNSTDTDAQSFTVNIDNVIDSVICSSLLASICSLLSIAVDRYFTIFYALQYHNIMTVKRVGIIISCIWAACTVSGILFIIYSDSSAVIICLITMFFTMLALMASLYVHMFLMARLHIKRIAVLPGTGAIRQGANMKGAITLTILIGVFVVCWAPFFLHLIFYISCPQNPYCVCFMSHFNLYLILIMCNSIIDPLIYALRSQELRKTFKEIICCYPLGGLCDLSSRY
- Format: cell membranes, HEK293, Membrane
- condition: hek293
reported-metric: IC50

>  <compound>
CC1Cc2ccccc2N1NC(=O)c1ccc(Cl)c(S(N)(=O)=O)c1 (stereo not given) [INDAPAMIDE]

>  <target-or-test-system>
Melanocortin receptor 4 (Homo sapiens); further: in other assays of this panel Not Active means under 50% inhibition at 10 µM

>  <value>
Not Active

$$$$
>  <compound>
Cc1ccc(/N=C/N(C)/C=N/c2ccc(C)cc2C)c(C)c1 [AMITRAZ]

>  <target-or-test-system>
Melanocortin receptor 4 (Homo sapiens); further: in other assays of this panel Not Active means under 50% inhibition at 10 µM

>  <value>
Not Active

$$$$
>  <compound>
N[C@@H]1[C@H]2CN(c3nc4c(cc3F)c(=O)c(C(=O)O)cn4-c3ccc(F)cc3F)C[C@@H]12 [TROVAFLOXACIN]

>  <target-or-test-system>
Melanocortin receptor 4 (Homo sapiens); further: in other assays of this panel Not Active means under 50% inhibition at 10 µM

>  <value>
Not Active

$$$$
>  <compound>
Nc1nc(N)nc(-c2cc(Cl)ccc2Cl)n1.O=C(O)/C=C\C(=O)O [IRSOGLADINE MALEATE]

>  <target-or-test-system>
Melanocortin receptor 4 (Homo sapiens); further: in other assays of this panel Not Active means under 50% inhibition at 10 µM

>  <value>
Not Active

$$$$
>  <compound>
NC1=NC(=O)C(c2ccccc2)O1 (stereo not given) [PEMOLINE]

>  <target-or-test-system>
Melanocortin receptor 4 (Homo sapiens); further: in other assays of this panel Not Active means under 50% inhibition at 10 µM

>  <value>
Not Active

$$$$

List the reported IC50 of each compound below.
1. CC(C)C(Br)C(=O)NC(N)=O (stereo not given) [BROMISOVALUM]
2. COc1nc(C)nc(Cl)c1NC1=NCCN1 [MOXONIDINE]

Result:
Not Active
Not Active

List the reported IC50 of each compound below.
1. Nc1nc2nc[nH]c2c(=S)[nH]1 [THIOGUANINE]
2. CNNCc1ccc(C(=O)NC(C)C)cc1 [PROCARBAZINE]
3. C=CCC1(C(C)CCC)C(=O)NC(=O)NC1=O (stereo not given) [SECOBARBITAL]

Result:
1: Not Active; 2: Not Active; 3: Not Active

###

- target-or-test-system: UniProtKB P37288
- Sequence (P37288 whole entry): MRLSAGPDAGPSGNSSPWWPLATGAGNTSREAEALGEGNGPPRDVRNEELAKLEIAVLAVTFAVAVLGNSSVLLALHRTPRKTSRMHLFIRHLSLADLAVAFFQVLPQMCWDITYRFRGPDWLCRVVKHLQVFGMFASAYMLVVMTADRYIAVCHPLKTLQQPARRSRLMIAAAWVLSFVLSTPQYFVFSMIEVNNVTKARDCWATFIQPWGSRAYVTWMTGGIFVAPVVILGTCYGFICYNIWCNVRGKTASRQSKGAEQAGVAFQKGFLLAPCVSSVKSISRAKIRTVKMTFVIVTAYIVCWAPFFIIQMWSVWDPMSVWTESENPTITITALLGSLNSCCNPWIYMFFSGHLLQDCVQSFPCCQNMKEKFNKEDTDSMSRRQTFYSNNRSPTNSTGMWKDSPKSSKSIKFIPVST
- Type: cell membranes, Membrane
- condition: hek293
reported-metric: IC50

Reference set (7 entries):
>  <molecule>
CC(=O)O[C@@]12CO[C@@H]1C[C@H](O)[C@@]1(C)C(=O)[C@H](O)C3=C(C)[C@@H](OC(=O)[C@H](O)[C@@H](NC(=O)OC(C)(C)C)c4ccccc4)C[C@@](O)([C@@H](OC(=O)c4ccccc4)[C@H]21)C3(C)C.O.O.O

>  <value>
Not Active

$$$$
>  <molecule>
OCCN(CCO)c1nc(N2CCCCC2)c2nc(N(CCO)CCO)nc(N3CCCCC3)c2n1

>  <value>
Not Active

$$$$
>  <molecule>
N[C@@H](Cc1ccc(N(CCCl)CCCl)cc1)C(=O)O

>  <value>
Not Active

$$$$
>  <molecule>
C=C(C)C1(O)OC(=O)C=C1OC (stereo not drawn)

>  <value>
Not Active

$$$$
>  <molecule>
N#CC(C#N)=Cc1ccc(O)c(O)c1

>  <value>
Not Active

$$$$
>  <molecule>
CC1Cc2ccccc2N1NC(=O)c1ccc(Cl)c(S(N)(=O)=O)c1 (stereo not drawn) [INDAPAMIDE]

>  <value>
Not Active

$$$$
>  <molecule>
CC(O)CO (stereo not drawn)

>  <value>
Not Active

$$$$

Okay, now this molecule:
Q: Give reported IC50 value for NS(=O)(=O)c1cc2c(cc1Cl)NC(C(Cl)Cl)NS2(=O)=O (stereo not drawn) [TRICHLORMETHIAZIDE]
Result: Not Active

###

- target-or-test-system: UniProtKB P03372
- Sequence (P03372 whole entry): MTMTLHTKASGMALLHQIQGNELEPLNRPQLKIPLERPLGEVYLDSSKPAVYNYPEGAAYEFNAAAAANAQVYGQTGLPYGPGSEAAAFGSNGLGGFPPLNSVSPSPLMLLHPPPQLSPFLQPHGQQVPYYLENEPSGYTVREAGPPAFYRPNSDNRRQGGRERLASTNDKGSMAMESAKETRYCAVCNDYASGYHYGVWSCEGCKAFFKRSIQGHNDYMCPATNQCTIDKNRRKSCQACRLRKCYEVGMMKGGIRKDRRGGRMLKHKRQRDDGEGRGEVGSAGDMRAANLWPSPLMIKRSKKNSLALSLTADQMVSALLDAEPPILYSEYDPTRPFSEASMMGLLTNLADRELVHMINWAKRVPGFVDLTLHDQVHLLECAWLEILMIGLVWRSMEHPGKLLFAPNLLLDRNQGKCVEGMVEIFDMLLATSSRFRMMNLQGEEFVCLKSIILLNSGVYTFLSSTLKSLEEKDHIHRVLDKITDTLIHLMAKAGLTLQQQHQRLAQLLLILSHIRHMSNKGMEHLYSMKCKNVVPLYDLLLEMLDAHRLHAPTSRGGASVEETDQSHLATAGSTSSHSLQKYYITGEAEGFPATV
- condition: sf9
reported-metric: IC50

Reference set (5 entries):
>  <compound>
CC(C)C(=O)Nc1ccc([N+](=O)[O-])c(C(F)(F)F)c1 [FLUTAMIDE]

>  <value>
Not Active

$$$$
>  <compound>
NC(=O)N1c2ccccc2CCc2ccccc21

>  <value>
Not Active

$$$$
>  <compound>
CCCCc1oc2ccccc2c1C(=O)c1cc(I)c(OCCN(CC)CC)c(I)c1

>  <value>
Not Active

$$$$
>  <compound>
O=C(CCCN1CC=C(n2c(=O)[nH]c3ccccc32)CC1)c1ccc(F)cc1

>  <value>
Not Active

$$$$
>  <compound>
Cc1oncc1C(=O)Nc1ccc(C(F)(F)F)cc1 [LEFLUNOMIDE]

>  <value>
Not Active

$$$$

List the reported IC50 of each compound below.
1. CC[C@@H](CO)NC(=O)[C@@H]1C=C2c3cccc4[nH]cc(c34)C[C@H]2N(C)C1
2. CC1Cc2ccccc2N1NC(=O)c1ccc(Cl)c(S(N)(=O)=O)c1 (stereo not drawn) [INDAPAMIDE]
3. c1ccc2c(c1)c1cccc3ccc4cccc2c4c31 [BENZO[E]PYRENE]

Result:
["Not Active", "Not Active", "Not Active"]

List the reported IC50 of each compound below.
1. Nc1ncn([C@@H]2O[C@H](CO)[C@@H](O)[C@H]2O)c(=O)n1
2. N[C@@H]1[C@H]2CN(c3nc4c(cc3F)c(=O)c(C(=O)O)cn4-c3ccc(F)cc3F)C[C@@H]12
3. CC1CC(OC(=O)C(O)c2ccccc2)CC(C)(C)C1 (stereo not drawn) [CYCLANDELATE]
4. CC[C@@]1(O)C[C@H](O[C@H]2C[C@H](N(C)C)[C@H](O[C@H]3C[C@H](O)[C@H](O[C@H]4CCC(=O)[C@H](C)O4)[C@H](C)O3)[C@H](C)O2)c2c(cc3c(c2O)C(=O)c2c(O)cccc2C3=O)[C@H]1C(=O)OC
5. COc1ccc(C[C@H]2NC[C@H](O)[C@H]2OC(C)=O)cc1

Result:
Not Active
Not Active
Not Active
Not Active
Not Active

List the reported IC50 of each compound below.
1. CCOC(=O)N1CCC(=C2c3ccc(Cl)cc3CCc3cccnc32)CC1
2. c1ccc(Nc2ccc(Nc3ccccc3)cc2)cc1
3. Cc1cc(C2CCCCC2)n(O)c(=O)c1
4. CC[C@]1(O)C[C@H]2CN(CCc3c([nH]c4ccccc34)[C@@](C(=O)OC)(c3cc4c(cc3OC)N(C=O)[C@H]3[C@@](O)(C(=O)OC)[C@H](OC(C)=O)[C@]5(CC)C=CCN6CC[C@]43[C@@H]65)C2)C1
5. NC[C@H]1CC[C@H](C(=O)O)CC1

Result:
Not Active
Not Active
Not Active
Not Active
Not Active

###

- target-or-test-system: UniProt:P33032
- Sequence (P33032 whole entry): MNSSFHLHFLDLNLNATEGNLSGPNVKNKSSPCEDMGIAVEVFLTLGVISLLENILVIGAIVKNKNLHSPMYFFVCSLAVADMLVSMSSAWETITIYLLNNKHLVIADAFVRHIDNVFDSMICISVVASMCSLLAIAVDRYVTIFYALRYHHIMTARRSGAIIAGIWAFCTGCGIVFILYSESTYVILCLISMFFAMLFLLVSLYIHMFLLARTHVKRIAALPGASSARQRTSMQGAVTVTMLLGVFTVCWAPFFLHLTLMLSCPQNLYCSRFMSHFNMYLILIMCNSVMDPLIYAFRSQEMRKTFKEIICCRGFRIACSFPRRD
- Format: cell membranes, HEK293, Membrane
- condition: hek293
reported-metric: IC50

>  <compound>
CCCC1O[C@@H]2C[C@H]3[C@@H]4CCC5=CC(=O)C=C[C@]5(C)[C@H]4[C@@H](O)C[C@]3(C)[C@]2(C(=O)CO)O1 (some centres not stated) [BUDESONIDE]

>  <value>
Not Active

$$$$
>  <compound>
CC(=O)O[C@@]12CO[C@@H]1C[C@H](O)[C@@]1(C)C(=O)[C@H](O)C3=C(C)[C@@H](OC(=O)[C@H](O)[C@@H](NC(=O)OC(C)(C)C)c4ccccc4)C[C@@](O)([C@@H](OC(=O)c4ccccc4)[C@H]21)C3(C)C.O.O.O

>  <value>
Not Active

$$$$

###

- test-protocol: DRUGMATRIX: Atrial Natriuretic Factor (ANF) radioligand binding (ligand: [125I] ANF (rat))
- Format: cell membranes, Cavia porcellus, Dunkin-Hartley, Adrenal gland, Membrane
- condition: Not Active = under 50% inhibition at 10 µM
reported-metric: Ki

Reference set (8 entries):
>  <molecule>
Nc1nc2nc[nH]c2c(=S)[nH]1

>  <value>
Not Active

$$$$
>  <molecule>
C[C@]12CCC(=O)C=C1CC[C@@H]1[C@@H]2CC[C@@]2(C)[C@H]1CC[C@]2(C)O

>  <value>
Not Active

$$$$
>  <molecule>
CC(C)[C@@]1(NC(=O)[C@@H]2C[C@@H]3c4cccc5[nH]cc(c45)C[C@H]3N(C)C2)O[C@@]2(O)[C@@H]3CCCN3C(=O)[C@H](Cc3ccccc3)N2C1=O.CS(=O)(=O)O [DIHYDROERGOCRISTINE MESYLATE]

>  <value>
Not Active

$$$$
>  <molecule>
Cc1c(O)c(=O)ccn1C

>  <value>
Not Active

$$$$
>  <molecule>
CC[C@@]1(O)C[C@H](O[C@H]2C[C@H](N(C)C)[C@H](O[C@H]3C[C@H](O)[C@H](O[C@H]4CCC(=O)[C@H](C)O4)[C@H](C)O3)[C@H](C)O2)c2c(cc3c(c2O)C(=O)c2c(O)cccc2C3=O)[C@H]1C(=O)OC

>  <value>
Not Active

$$$$
>  <molecule>
C[C@@H]1CN(c2c(F)c(N)c3c(=O)c(C(=O)O)cn(C4CC4)c3c2F)C[C@H](C)N1

>  <value>
Not Active

$$$$
>  <molecule>
CC(C)(Oc1ccc(Cl)cc1)C(=O)O

>  <value>
Not Active

$$$$
>  <molecule>
CCCCc1nc(Cl)c(CO)n1Cc1ccc(-c2ccccc2-c2nnn[nH]2)cc1

>  <value>
Not Active

$$$$

List the reported Ki of each molecule below.
1. C[C@H]1O[C@@H](O[C@H]2[C@@H](O)C[C@H](O[C@H]3[C@@H](O)C[C@H](O[C@H]4CC[C@@]5(C)[C@H](CC[C@@H]6[C@@H]5C[C@@H](O)[C@]5(C)[C@@H](C7=CC(=O)OC7)CC[C@]65O)C4)O[C@@H]3C)O[C@@H]2C)C[C@H](O)[C@@H]1O
2. CCCCN1CCCC[C@H]1C(=O)Nc1c(C)cccc1C
3. Nc1c2c(nc3ccccc13)CCCC2
4. CNNCc1ccc(C(=O)NC(C)C)cc1
5. CC(NC(C)(C)C)C(=O)c1cccc(Cl)c1 (stereo not drawn)
6. COc1nc(C)nc(Cl)c1NC1=NCCN1
7. Cc1ccccc1N1C(=O)c2cc(S(N)(=O)=O)c(Cl)cc2NC1C (stereo not drawn)

Result:
1: Not Active; 2: Not Active; 3: Not Active; 4: Not Active; 5: Not Active; 6: Not Active; 7: Not Active

List the reported Ki of each molecule below.
1. Cc1c(C)c2c(c(C)c1O)CCC(C)(COc1ccc(CC3SC(=O)NC3=O)cc1)O2 (stereo not drawn)
2. C=C(C)C1(O)OC(=O)C=C1OC (stereo not drawn)
3. Nc1nc2c(ncn2COCCO)c(=O)[nH]1
4. Cc1onc(-c2ccccc2Cl)c1C(=O)N[C@@H]1C(=O)N2[C@@H]1SC(C)(C)[C@@H]2C(=O)O
5. Cc1noc(NS(=O)(=O)c2ccc(N)cc2)c1C
6. Sc1ncnc2nc[nH]c12 [MERCAPTOPURINE ANHYDROUS]
7. NC1=NC(=O)C(c2ccccc2)O1 (stereo not drawn)
8. CC(C)C(Br)C(=O)NC(N)=O (stereo not drawn)

Result:
1: Not Active; 2: Not Active; 3: Not Active; 4: Not Active; 5: Not Active; 6: Not Active; 7: Not Active; 8: Not Active

List the reported Ki of each molecule below.
1. CN(Cc1ccc(C(C)(C)C)cc1)Cc1cccc2ccccc12
2. C1CCC(C(CC2CCCCN2)C2CCCCC2)CC1 (stereo not drawn)
3. O=C(CCCN1CC=C(n2c(=O)[nH]c3ccccc32)CC1)c1ccc(F)cc1
4. CN(C)CCCN1c2ccccc2Sc2ccc(Cl)cc21

Result:
1. Not Active
2. Not Active
3. Not Active
4. Not Active

List the reported Ki of each molecule below.
1. CC1Cc2ccccc2N1NC(=O)c1ccc(Cl)c(S(N)(=O)=O)c1 (stereo not drawn) [INDAPAMIDE]
2. NC(=O)N1c2ccccc2CCc2ccccc21
3. C[C@H]1c2cccc(O)c2C(=O)C2=C(O)[C@]3(O)C(=O)C(C(N)=O)=C(O)[C@@H](N(C)C)[C@@H]3[C@@H](O)[C@@H]21.O
4. CCC(C)n1ncn(-c2ccc(N3CCN(c4ccc(OCC5COC(Cn6cncn6)(c6ccc(Cl)cc6Cl)O5)cc4)CC3)cc2)c1=O (stereo not drawn)
5. CNCCCN1c2ccccc2CCc2ccccc21
6. CC1(C)O[C@@H]2C[C@H]3[C@@H]4CCC5=CC(=O)C=C[C@]5(C)[C@@]4(F)[C@@H](O)C[C@]3(C)[C@]2(C(=O)CO)O1 [TRIAMCINOLONE ACETONIDE]

Result:
1: Not Active; 2: Not Active; 3: Not Active; 4: Not Active; 5: Not Active; 6: Not Active
